- Tested on: S. aureus IHT 99040
- assayComment: MIC, multi-resistant clinical isolate
- Type: cell-based, Staphylococcus aureus
- conditions: Staphylococcus aureus, IHT99040, read-out: Antimicrobial activity (MIC)
recordedEndpoint: MIC (µg/mL)
Answer format: numeric, µg/mL implied, no suffix.

## Task Name the recorded MIC for "NCCCCN1C(=O)N(CCCCN)C(=O)C(Cc2ccc(F)c3ccccc23)(Cc2ccc(F)c3ccccc23)C1=O" .
## Result 8

## Task Now the same for "N=C(N)NCCCCN1C(=O)N(CCCCNC(=N)N)C(=O)C(Cc2ccc(F)c3ccccc23)(Cc2ccc(F)c3ccccc23)C1=O"
## Result 2

## Task Likewise for "N=C(N)NCCCCN1C(=O)N(CCCCNC(=N)N)C(=O)C(Cc2cc(Br)cc(Br)c2)(Cc2cc(Br)cc(Br)c2)C1=O" ?
## Result 2

## Task What would you report for "CC(C)(C)c1cc(CC2(Cc3cc(C(C)(C)C)cc(C(C)(C)C)c3)C(=O)N(CCCCNC(=N)N)C(=O)N(CCCCNC(=N)N)C2=O)cc(C(C)(C)C)c1" ?
## Result 2

## Task Next compound up: "CC(C)(C)c1ccc(CC2(Cc3ccc(C(C)(C)C)cc3)C(=O)N(CCCCN)C(=O)N(CCCCN)C2=O)cc1"
## Result 8

## Task Entry to check: "CC(C)(C)c1cc(CC2(Cc3cc(C(C)(C)C)cc(C(C)(C)C)c3)C(=O)N(CCCCN)C(=O)N(CCCCN)C2=O)cc(C(C)(C)C)c1"
## Result 2

## Task # iterate: "NCCCCN1C(=O)N(CCCCN)C(=O)C(Cc2ccc3ccccc3c2)(Cc2ccc3ccccc3c2)C1=O"
## Result 8

----------
- Tested on: A. baumanii K47-42
- assayComment: MIC, multi-resistant clinical isolate
- Assay type: cell-based, Acinetobacter baumannii
- conditions: Acinetobacter baumannii, K4742, read-out: Antimicrobial activity (MIC)
# MIC listing for each entry below

Below: 6 compounds and their reported MIC.
>>> assayresult("NCCCCN1C(=O)N(CCCCN)C(=O)C(Cc2ccc(F)c3ccccc23)(Cc2ccc(F)c3ccccc23)C1=O")
"32 µg/mL"
>>> assayresult("N=C(N)NCCCCN1C(=O)N(CCCCNC(=N)N)C(=O)C(Cc2ccc(F)c3ccccc23)(Cc2ccc(F)c3ccccc23)C1=O")
"8 µg/mL"
>>> assayresult("NCCCCN1C(=O)N(CCCCN)C(=O)C(Cc2cc(C(F)(F)F)cc(C(F)(F)F)c2)(Cc2cc(C(F)(F)F)cc(C(F)(F)F)c2)C1=O")
"32 µg/mL"
>>> assayresult("CC(C)(C)c1ccc(CC2(Cc3ccc(C(C)(C)C)cc3)C(=O)N(CCCCN)C(=O)N(CCCCN)C2=O)cc1")
"16 µg/mL"
>>> assayresult("CC(C)(C)c1ccc(CC2(Cc3ccc(C(C)(C)C)cc3)C(=O)N(CCCCNC(=N)N)C(=O)N(CCCCNC(=N)N)C2=O)cc1")
"8 µg/mL"
>>> assayresult("N=C(N)NCCCCN1C(=O)N(CCCCNC(=N)N)C(=O)C(Cc2cc(Br)cc(Br)c2)(Cc2cc(Br)cc(Br)c2)C1=O")
"4 µg/mL"

## Task Value wanted: MIC (A. baumanii K47-42) of entry "CC(C)(C)c1cc(CC2(Cc3cc(C(C)(C)C)cc(C(C)(C)C)c3)C(=O)N(CCCCN)C(=O)N(CCCCN)C2=O)cc(C(C)(C)C)c1"
## Result 4 µg/mL
